// CL/F lookup, one value per entry
- protocol.notes: Pharmacokinetic study in nude mice, intragastric administration
- Type: in vivo
- experimental.parameters: female, mouse, po; Balb/c nude mice, i.g., 50 mg/kg, plasma; read-out: Clearance CL/F

compound	quantity.unit	CL/F
CC(C)NC[C@@H](C(=O)N1[C@@H]2CC[C@H]1CN(c1ncnc3c1[C@H](C)C[C@H]3O)C2)c1ccc(Cl)cc1 [Example 4]	mL/min/kg	57.5
CC(C)NC[C@@H](C(=O)N1C2CCC1CN(c1ncnc3c1C(C)(C)C(=O)N3)C2)c1ccc(Cl)cc1 [Example 2]	mL/min/kg	41.2

----------
// half-life lookup, one value per entry
- protocol.notes: Pharmacokinetic study in rats, administration by injection (i.v.)
- Format: in vivo
- experimental.parameters: both sexes, rat, iv, SD rats, 1 mg/kg, plasma, read-out: Half-life T1/2 (converted)

structure.string	half-life, h
CC(C)NC[C@@H](C(=O)N1[C@@H]2CC[C@H]1CN(c1ncnc3c1[C@H](C)C[C@H]3O)C2)c1ccc(Cl)cc1	2.5
CC(C)NC[C@@H](C(=O)N1C2CCC1CN(c1ncnc3c1C(C)(C)C(=O)N3)C2)c1ccc(Cl)cc1	2

----------
pIC50: −log10 of the molar value.
Below are compounds with their pIC50 as measured on AKT3 (Homo sapiens, UniProt Q9Y243).
Sequence (Q9Y243 whole entry): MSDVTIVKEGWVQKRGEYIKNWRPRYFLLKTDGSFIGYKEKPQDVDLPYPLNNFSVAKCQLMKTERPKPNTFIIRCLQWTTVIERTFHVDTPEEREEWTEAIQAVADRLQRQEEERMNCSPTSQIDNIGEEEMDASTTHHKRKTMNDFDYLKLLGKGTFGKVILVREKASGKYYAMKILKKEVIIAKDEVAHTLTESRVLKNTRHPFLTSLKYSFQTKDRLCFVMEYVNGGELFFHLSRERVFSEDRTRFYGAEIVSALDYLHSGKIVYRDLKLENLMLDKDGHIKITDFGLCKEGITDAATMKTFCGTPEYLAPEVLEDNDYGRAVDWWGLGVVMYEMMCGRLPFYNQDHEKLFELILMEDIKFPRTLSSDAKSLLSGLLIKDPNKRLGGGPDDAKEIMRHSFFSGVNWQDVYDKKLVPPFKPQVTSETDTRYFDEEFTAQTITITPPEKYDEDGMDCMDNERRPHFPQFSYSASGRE

structure.string	study.target	pIC50
CC(C)NC[C@@H](C(=O)N1C2COCC1CN(c1ncnc3[nH]ccc13)C2)c1ccc(Cl)cc1	AKT3 (Homo sapiens, UniProt Q9Y243)	6.57
CC(C)NC[C@@H](C(=O)N1C2CCC1CN(c1ncnc3c1C(C)(C)C(=O)N3)C2)c1ccc(Cl)cc1	AKT3 (Homo sapiens, UniProt Q9Y243)	8.70
CC(C)NC[C@@H](C(=O)N1[C@@H]2CC[C@H]1CN(c1ncnc3c1[C@H](C)C[C@H]3O)C2)c1ccc(Cl)cc1	AKT3 (Homo sapiens, UniProt Q9Y243)	7.25
CC(C)NC[C@@H](C(=O)N1CC2COCC(C1)N2c1ncnc2[nH]ccc12)c1ccc(Cl)cc1	AKT3 (Homo sapiens, UniProt Q9Y243)	7.22
Cc1c[nH]c2nccc(N3C[C@H]4CC[C@@H](C3)N4C(=O)[C@H](CNC(C)C)c3ccc(Cl)cc3)c12	AKT3 (Homo sapiens, UniProt Q9Y243)	8.20
CC(C)NC[C@@H](C(=O)N1C2CCCC1CN(c1ncnc3[nH]ccc13)C2)c1ccc(Cl)cc1	AKT3 (Homo sapiens, UniProt Q9Y243)	6.95

----------
- protocol.notes: Pharmacokinetic study in nude mice, intragastric administration
- Type: in vivo
- experimental.parameters: female, mouse, po; Balb/c nude mice, i.g., 100 mg/kg, plasma; read-out: Area under curve AUC0-t
- Procedure: The drug concentration in the plasma of the test animals (Balb/c nude mice) at different time points after intragastric administration (i.g.) of the test compounds was determined by using an LC/MS/MS method. The pharmacokinetic performance of the compounds of the present disclosure in nude mice was studied and their pharmacokinetic profile was evaluated. 18 Balb/c nude mice, female, divided into 2 groups and purchased from Vital River Laboratory Animal Technology Co., Ltd. […]

compound	AUC(0-t) [ng·h/mL]
CC(C)NC[C@@H](C(=O)N1[C@@H]2CC[C@H]1CN(c1ncnc3c1[C@H](C)C[C@H]3O)C2)c1ccc(Cl)cc1 [Example 4]	27500
CC(C)NC[C@@H](C(=O)N1C2CCC1CN(c1ncnc3c1C(C)(C)C(=O)N3)C2)c1ccc(Cl)cc1 [Example 2]	36000

----------
- protocol.notes: Pharmacokinetic study in nude mice, intragastric administration
- Type: in vivo
- experimental.parameters: female, mouse, po; Balb/c nude mice, i.g., 50 mg/kg, plasma; read-out: Residence time MRT
// MRT lookup, one value per entry
attribute.measured: MRT (h)

molecule	quantity.unit	obs.value
CC(C)NC[C@@H](C(=O)N1[C@@H]2CC[C@H]1CN(c1ncnc3c1[C@H](C)C[C@H]3O)C2)c1ccc(Cl)cc1 [Example 4]	h	3
CC(C)NC[C@@H](C(=O)N1C2CCC1CN(c1ncnc3c1C(C)(C)C(=O)N3)C2)c1ccc(Cl)cc1 [Example 2]	h	4.9

----------
- protocol.notes: Pharmacokinetic study in rats, administration by injection (i.v.)
- Format: in vivo
- experimental.parameters: both sexes, rat, iv, SD rats, 1 mg/kg, plasma, read-out: Clearance CL
attribute.measured: clearance (mL/min/kg)

compound	attribute.measured	quantity.unit	obs.value
CC(C)NC[C@@H](C(=O)N1C2CCC1CN(c1ncnc3c1C(C)(C)C(=O)N3)C2)c1ccc(Cl)cc1 [Example 2]	clearance	mL/min/kg	75.4
CC(C)NC[C@@H](C(=O)N1[C@@H]2CC[C@H]1CN(c1ncnc3c1[C@H](C)C[C@H]3O)C2)c1ccc(Cl)cc1 [Example 4]	clearance	mL/min/kg	82.9

----------
- protocol.notes: Pharmacokinetic study in nude mice, intragastric administration
- Type: in vivo
- experimental.parameters: female, mouse, po; Balb/c nude mice, i.g., 50 mg/kg, plasma; read-out: Apparent volume of distribution Vz/F

compound	Vd/F
CC(C)NC[C@@H](C(=O)N1[C@@H]2CC[C@H]1CN(c1ncnc3c1[C@H](C)C[C@H]3O)C2)c1ccc(Cl)cc1 [Example 4]	8.71 L/kg
CC(C)NC[C@@H](C(=O)N1C2CCC1CN(c1ncnc3c1C(C)(C)C(=O)N3)C2)c1ccc(Cl)cc1 [Example 2]	8.03 L/kg

----------
- protocol.notes: Pharmacokinetic study in nude mice, intragastric administration
- Format: in vivo
- experimental.parameters: female, mouse, po; Balb/c nude mice, i.g., 100 mg/kg, plasma; read-out: Residence time MRT

structure.string	MRT (h)
CC(C)NC[C@@H](C(=O)N1C2CCC1CN(c1ncnc3c1C(C)(C)C(=O)N3)C2)c1ccc(Cl)cc1	6.7
CC(C)NC[C@@H](C(=O)N1[C@@H]2CC[C@H]1CN(c1ncnc3c1[C@H](C)C[C@H]3O)C2)c1ccc(Cl)cc1	3.7

----------
// AUC(0-t) lookup, one value per entry
- protocol.notes: Pharmacokinetic study in nude mice, intragastric administration
- Assay type: in vivo
- experimental.parameters: female, mouse, po; Balb/c nude mice, i.g., 50 mg/kg, plasma; read-out: Area under curve AUC0-t

compound	quantity.unit	AUC(0-t)
CC(C)NC[C@@H](C(=O)N1C2CCC1CN(c1ncnc3c1C(C)(C)C(=O)N3)C2)c1ccc(Cl)cc1 [Example 2]	ng·h/mL	20200
CC(C)NC[C@@H](C(=O)N1[C@@H]2CC[C@H]1CN(c1ncnc3c1[C@H](C)C[C@H]3O)C2)c1ccc(Cl)cc1 [Example 4]	ng·h/mL	14300

----------
// MRT lookup, one value per entry
- protocol.notes: Pharmacokinetic study in rats, administration by injection (i.v.)
- Type: in vivo
- experimental.parameters: both sexes, rat, iv, SD rats, 1 mg/kg, plasma, read-out: Residence time MRT
attribute.measured: MRT

structure.string	obs.value
CC(C)NC[C@@H](C(=O)N1C2CCC1CN(c1ncnc3c1C(C)(C)C(=O)N3)C2)c1ccc(Cl)cc1	2.6 h
CC(C)NC[C@@H](C(=O)N1[C@@H]2CC[C@H]1CN(c1ncnc3c1[C@H](C)C[C@H]3O)C2)c1ccc(Cl)cc1	2.2 h

----------
// Cmax lookup, one value per entry
- protocol.notes: Pharmacokinetic study in nude mice, intragastric administration
- Assay type: in vivo
- experimental.parameters: female, mouse, po; Balb/c nude mice, i.g., 100 mg/kg, plasma; read-out: Plasma concentration Cmax

structure.string	Cmax
CC(C)NC[C@@H](C(=O)N1C2CCC1CN(c1ncnc3c1C(C)(C)C(=O)N3)C2)c1ccc(Cl)cc1	3500 ng/mL
CC(C)NC[C@@H](C(=O)N1[C@@H]2CC[C@H]1CN(c1ncnc3c1[C@H](C)C[C@H]3O)C2)c1ccc(Cl)cc1	5500 ng/mL

----------
- study.target: AKT2 (Homo sapiens)
- Sequence (P31751 whole entry): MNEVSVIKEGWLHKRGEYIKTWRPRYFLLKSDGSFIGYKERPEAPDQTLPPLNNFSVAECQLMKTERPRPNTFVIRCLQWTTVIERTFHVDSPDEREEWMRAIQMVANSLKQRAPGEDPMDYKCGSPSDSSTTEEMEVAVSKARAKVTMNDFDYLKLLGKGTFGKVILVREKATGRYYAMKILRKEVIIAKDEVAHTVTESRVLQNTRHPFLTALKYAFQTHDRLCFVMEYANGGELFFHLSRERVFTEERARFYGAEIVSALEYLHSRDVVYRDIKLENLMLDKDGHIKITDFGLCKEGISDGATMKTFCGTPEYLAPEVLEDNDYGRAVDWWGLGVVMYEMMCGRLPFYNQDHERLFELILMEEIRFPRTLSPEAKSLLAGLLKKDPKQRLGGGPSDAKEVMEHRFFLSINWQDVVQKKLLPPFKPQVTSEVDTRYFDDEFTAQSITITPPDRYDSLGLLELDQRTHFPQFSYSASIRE
Flag rule - IC50 less than 60 nM flags yes (1); the remaining entries get no (0).

structure.string	label.class
CC(C)NC[C@@H](C(=O)N1C2CCC1CN(c1ncnc3c1C(C)(C)C(=O)N3)C2)c1ccc(Cl)cc1	no (0)
CC(C)NC[C@@H](C(=O)N1CC2COCC(C1)N2c1ncnc2[nH]ccc12)c1ccc(Cl)cc1	no (0)
CC(C)NC[C@@H](C(=O)N1[C@@H]2CC[C@H]1CN(c1ncnc3[nH]ccc13)C2)c1ccc(Cl)cc1	no (0)
CC(C)NC[C@@H](C(=O)N1C2COCC1CN(c1ncnc3[nH]ccc13)C2)c1ccc(Cl)cc1	no (0)
Cc1c[nH]c2nccc(N3C[C@H]4CC[C@@H](C3)N4C(=O)[C@H](CNC(C)C)c3ccc(Cl)cc3)c12	yes (1)
CC(C)NC[C@@H](C(=O)N1C2CCCC1CN(c1ncnc3[nH]ccc13)C2)c1ccc(Cl)cc1	no (0)
CC(C)NC[C@@H](C(=O)N1[C@@H]2CC[C@H]1CN(c1ncnc3c1[C@H](C)C[C@H]3O)C2)c1ccc(Cl)cc1	yes (1)
